Tested on: PC-3 prostate
Assay: NCI-60 one-dose screen, 48 h
Details: 10 µM unless noted
Compounds without any hit were thinned out: in the full panel of roughly 83,000, 20% have a hit. Active and inactive are the calls of the source. How the source made its calls: active means growth percent below 10; inactive means the rest.
Choose one outcome from this list and give only that: active, inactive

Reference set, count: 3
>  <query-smiles>
CCCCCN1C=C/C(=C\C(=O)N2CCCc3ccccc32)c2ccccc21

>  <class-assignment>
inactive

$$$$
>  <query-smiles>
CCOc1ccc(Nc2nc(-c3ccc4c(c3)NC(=O)CO4)cs2)cc1

>  <class-assignment>
inactive

$$$$
>  <query-smiles>
O=C(/C=C/c1c(-c2ccc(Cl)cc2)nn(-c2ccccc2)c1C(F)(F)F)c1ccc(Cl)cc1

>  <class-assignment>
inactive

$$$$

# input Recorded test outcome, item CC1(C)NCCC[C@]2(C)[C@H]3CC[C@@H]4[C@H]5[C@H](C(=O)/C=C/c6ccco6)CC[C@]5(CO)CC[C@@]4(C)[C@]3(C)CC[C@@H]12
# output inactive

# input Recorded test outcome, item C#Cc1cccc(NC(=O)c2cccc(NC(=O)CCl)c2)c1
# output active

# input Recorded test outcome, item COc1cc(OC)cc(C(=O)C[n+]2cccc3cc[nH]c32)c1
# output inactive

# input Recorded test outcome, item Cc1nn(-c2ccccc2)c(Oc2c(Cl)cccc2Cl)c1/C=N/N=c1\sc2ccccc2n1C
# output inactive

# input Recorded test outcome, item CCOC(=O)Oc1c(OC)cc(C(=O)c2ccc(OC)c(O)c2OC)cc1OC
# output inactive

# input Recorded test outcome, item CC(=O)[C@@H]1CC[C@]2(CO)CC[C@]3(C)[C@H](CC[C@@H]4[C@@]5(C)CCCNC(C)(C)[C@@H]5CC[C@]43C)[C@@H]12
# output inactive

* * *

Tested on: NCI-H322M lung
Experiment: NCI-60 one-dose screen, 48 h (100 = growth as untreated, 0 = no growth, -100 = all killed)
Conditions: 10 µM unless noted
The panel holds about 83,000 compounds, 20% with a hit somewhere; the sample as a whole holds those more often.
Binary call on growth: 1 from 60% upward, -1 beneath that.

Reference set, count: 5
>  <compound>
COc1ccc(C(C)=O)c(OC)c1

>  <class-assignment>
1

$$$$
>  <compound>
O=C(/C(=C/c1ccc([N+](=O)[O-])cc1)SCc1ccc(F)cc1)c1ccc(F)cc1

>  <class-assignment>
1

$$$$
>  <compound>
O=C(CCN1CCCC1)Nc1ccc2c(NCCCc3ccccc3)c3ccccc3nc2c1

>  <class-assignment>
-1

$$$$
>  <compound>
COc1cc(/C=N/NC(=O)c2cnn3c2NC(c2ccccc2)C3)ccc1Oc1ccccc1 (stereo not given)

>  <class-assignment>
-1

$$$$
>  <compound>
COc1c(Cl)c2c(c(OC)c1OC)-c1ccc(SC)c(=O)cc1[C@@H](NC(=O)OCC(F)(F)F)CC2

>  <class-assignment>
-1

$$$$

# input Hello, I need to know if Fc1ccc2c(-c3cncn3CCc3ccccc3)c[nH]c2c1 has measured growth not below 60%. Thanks!
# output 1

# input Hello, I need to know if COc1cc(/C=N/O)nc(-c2ccccn2)c1 has measured growth not below 60%. Thanks!
# output -1

# input Hello, I need to know if COc1cc2oc(-c3cccc(C(=O)Nc4ccc(Br)cc4)c3)cc(=O)c2c(OC)c1OC has measured growth not below 60%. Thanks!
# output 1
